Assay: Hepatocyte stability assay, human
Format: in vitro ADME
Conditions: human, hepatocytes, T½
Protocol: Defrosted cryo-preserved hepatocytes (viability>70%) were used to determine the metabolic stability of a compound via calculation of intrinsic clearance (CIint; a measure of the removal of a compound from the liver in the absence of blood flow and cell binding). […] The metabolic stability in hepatocytes assay involved a time-dependent reaction using both positive and negative controls. […] 80 μL of clear supernatant was removed and mixed with 80 μL of deionised water before being analysed by LC-MS/MS. […]
ENDPOINT_NAME: half-life at 10 μM

See these solved cases before continuing.
{"CHEMICAL_STRUCTURE": "C=C(C(=O)O)C(C)(C)C(=O)N[C@@H](C)c1ccc(C(F)(F)F)cc1", "half-life at 10 μM": "> 7.67 h"}
{"CHEMICAL_STRUCTURE": "C/C=C(\\CC(=O)N[C@@H](C)c1ccc(C(F)(F)F)cc1)C(=O)O", "half-life at 10 μM": "> 7.67 h"}

As a next step, examine the compound that follows.
Please look up its half-life at 10 μM: `C=C(CC(=O)N[C@@H](C)c1ccc(C(F)(F)C(F)(F)F)cc1)C(=O)O`
> 7.67 h

###

test system: cryo-preserved hepatocytes; assay: Hepatocyte stability assay, mouse; format: in vitro ADME; conditions: mouse, hepatocytes
ENDPOINT_NAME: Clint

Field: example entries. Status: answers known.
{"MOLECULE": "C=C(CC(=O)N[C@@H](C)c1ccc(C(F)(F)F)cn1)C(=O)O [Example 30]", "REPORTED_RESULT": "<3 μL min^−1 10^−6 cells"}
{"MOLECULE": "C=C(CC(=O)N[C@@H](C)c1ccc(C(F)(F)F)cc1)C(=O)OCCN(C)C [Example 26]", "REPORTED_RESULT": ">460 μL min^−1 10^−6 cells"}

As a next step, examine the molecule that follows.
I am curious: what Clint value has been reported for C=C(CC(=O)N[C@@H](C)c1ccc(C(F)(F)F)cc1)c1nnn[nH]1 [Example 57] ?
<3 μL min^−1 10^−6 cells
